- Tested on: Enterococcus faecium
- procedure-text: Antibacterial activity against Enterococcus faecium 10-6 after 18 to 24 hrs by NCCLS method
- Format: functional
observable: log10(MIC) (log10 of the value in µg/mL)

{"compound": "O=C(O)c1cn(C2CC2)c2cc(N3CCN(Cc4ccc5c(c4)OCCO5)CC3)c(F)cc2c1=O", "observable": "log10(MIC)", "value-observed": 0.30}
{"compound": "O=C(O)c1cn(C2CC2)c2cc(N3CCNCC3)c(F)cc2c1=O [CIPROFLOXACIN]", "observable": "log10(MIC)", "value-observed": 0.00}
{"compound": "COc1cc(CN2CCN(c3cc4c(cc3F)c(=O)c(C(=O)O)cn4C3CC3)CC2)c([N+](=O)[O-])cc1OC", "observable": "log10(MIC)", "value-observed": 0.90}
{"compound": "COc1ccc(CN2CCN(c3cc4c(cc3F)c(=O)c(C(=O)O)cn4C3CC3)CC2)cc1", "observable": "log10(MIC)", "value-observed": 0.00}
{"compound": "COc1ccc(CN2CCN(c3cc4c(cc3F)c(=O)c(C(=O)O)cn4C3CC3)CC2)c(OC)c1OC", "observable": "log10(MIC)", "value-observed": 0.90}
{"compound": "O=C(O)c1cn(C2CC2)c2cc(N3CCN(Cc4cc5c(cc4[N+](=O)[O-])OCO5)CC3)c(F)cc2c1=O", "observable": "log10(MIC)", "value-observed": 0.30}
{"compound": "O=C(O)c1cn(C2CC2)c2cc(N3CCN(Cc4ccc(OCc5ccccc5)cc4)CC3)c(F)cc2c1=O", "observable": "log10(MIC)", "value-observed": 0.90}
{"compound": "O=C(O)c1cn(C2CC2)c2cc(N3CCN(Cc4ccccc4)CC3)c(F)cc2c1=O", "observable": "log10(MIC)", "value-observed": 1.20}
{"compound": "COc1cccc(CN2CCN(c3cc4c(cc3F)c(=O)c(C(=O)O)cn4C3CC3)CC2)c1OC", "observable": "log10(MIC)", "value-observed": 0.60}
{"compound": "COc1cc(CN2CCN(c3cc4c(cc3F)c(=O)c(C(=O)O)cn4C3CC3)CC2)cc(OC)c1OC", "observable": "log10(MIC)", "value-observed": 0.60}
{"compound": "COc1cc(CN2CCN(c3cc4c(cc3F)c(=O)c(C(=O)O)cn4C3CC3)CC2)cc(OC)c1", "observable": "log10(MIC)", "value-observed": 1.20}
{"compound": "COc1ccc(OC)c(CN2CCN(c3cc4c(cc3F)c(=O)c(C(=O)O)cn4C3CC3)CC2)c1", "observable": "log10(MIC)", "value-observed": 1.20}
{"compound": "COc1ccc(CN2CCN(c3cc4c(cc3F)c(=O)c(C(=O)O)cn4C3CC3)CC2)cc1OC", "observable": "log10(MIC)", "value-observed": 0.60}
{"compound": "COc1ccc(CN2CCN(c3cc4c(cc3F)c(=O)c(C(=O)O)cn4C3CC3)CC2)c(Cl)c1OC", "observable": "log10(MIC)", "value-observed": 0.60}
{"compound": "O=C(O)c1cn(C2CC2)c2cc(N3CCN(Cc4ccc5c(c4)OCO5)CC3)c(F)cc2c1=O", "observable": "log10(MIC)", "value-observed": 0.90}
{"compound": "COc1cc(CN2CCN(c3cc4c(cc3F)c(=O)c(C(=O)O)cn4C3CC3)CC2)ccc1OCc1ccccc1", "observable": "log10(MIC)", "value-observed": 1.20}
